Recorded measurements of fraction ligated, one per entry
B1: minF1; the commonest letter at each place (parent)
chain: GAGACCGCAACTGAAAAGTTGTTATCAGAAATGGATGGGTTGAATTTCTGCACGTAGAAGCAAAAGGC

- Variants of: B1
- Assay Notes: fraction ligated after 30 min (ligated reads / total reads); higher = more ligase activity
- Stated Conditions: with F1*subA RNA substrate (template-directed ligation), 42 °C
Reply: number alone, nothing else.

Worked examples, 3 variants total:
>  <Variant Description>
T23C A29G

>  <Experimental Endpoint>
fraction ligated

>  <Recorded Value>
0.277

$$$$
>  <Variant Description>
A30T T36G

>  <Experimental Endpoint>
fraction ligated

>  <Recorded Value>
0.0328

$$$$
>  <Variant Description>
G34A G37C

>  <Experimental Endpoint>
fraction ligated

>  <Recorded Value>
0.00312

$$$$

Indicate its recorded fraction ligated; the variant in question is G33C A43G
0.0324

Indicate its recorded fraction ligated; the variant in question is T32G G42T
0.00243

Indicate its recorded fraction ligated; the variant in question is T32C G33T
0.0247

Indicate its recorded fraction ligated; the variant in question is G42A A43T A44G
0.000353

Indicate its recorded fraction ligated; the variant in question is C26T T32A
0.00354

All figures here come from the supplement of paper PMC6755084.
